# Test system: RARg homodimer (NR concentration 270 nM)
# methodSummary: PBM binding z-score (relative to random genomic background probes); higher = stronger binding; sequences stand for … in GC…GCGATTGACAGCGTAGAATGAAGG
We use 0.4 as the dividing line for PBM binding z-score: on or above the line is true, below is false.

Ask: Check if PBM binding z-score >= 0.4 (inclusive). Item: TCTTGTAGATCAGCAGGTTAAGAGAGCTGGCCAA
Reply: false

Ask: Reported PBM binding z-score reaches at least 0.4 for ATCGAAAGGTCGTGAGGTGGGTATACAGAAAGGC ?
Reply: true

Ask: Is reported PBM binding z-score greater than or equal to 0.4 here: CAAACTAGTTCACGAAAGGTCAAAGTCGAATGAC
Reply: true

Ask: Is reported PBM binding z-score greater than or equal to 0.4 here: CCTACCGGGCCATTCAGAGGTCATTGATCATATG
Reply: true

====

# System: PPARg:RXRa (NR concentration 180 nM, RXRa partner concentration 90 nM)
# methodSummary: PBM binding z-score (relative to random genomic background probes); higher = stronger binding; sequences stand for … in GC…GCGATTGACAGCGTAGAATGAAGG
metric: PBM binding z-score

Examples with their reported PBM binding z-score follow.
{"columns": ["orderedResidues", "PBM binding z-score"],
 "data": [
  ["CCAGACAGGTGAGAAGGTAACTCCGCCTCGATTA", 0.351],
  ["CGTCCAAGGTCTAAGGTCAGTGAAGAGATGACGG", 3.03],
  ["CAAACTAGGTCAAGGTCAAAATCGGTTTGTGCCA", 9.66],
  ["TAGCCTAGGTCATGCGGACCAGTATAGTGTCGGC", 1.99],
  ["TAAATGAGGTTATAAGATCAGGGAACGTTGCAAA", 2.1]
]}

Ask: What does the data say about its PBM binding z-score? Entry: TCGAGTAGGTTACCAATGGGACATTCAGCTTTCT
Reply: 0.563

Ask: Any idea what PBM binding z-score was measured for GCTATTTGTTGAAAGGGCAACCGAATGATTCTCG ?
Reply: 0.764

Ask: I'd like to know its PBM binding z-score. The sequence in question is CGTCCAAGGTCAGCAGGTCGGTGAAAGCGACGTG
Reply: 2.97

Ask: # lookup: PBM binding z-score of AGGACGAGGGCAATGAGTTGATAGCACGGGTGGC
Reply: 1.12

Ask: Look up PBM binding z-score for this sequence: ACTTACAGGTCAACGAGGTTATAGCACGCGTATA
Reply: 5.5

Ask: Data request, read-out PBM binding z-score, for CTCGAGAGGTCGGTTGAGGTGAGTATACGGATAA
Reply: 0.425

Ask: Consider the sequence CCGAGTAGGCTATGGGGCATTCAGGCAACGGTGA and give its measured PBM binding z-score.
Reply: 1.43

====

# System: RARa homodimer (NR concentration 270 nM)
# methodSummary: PBM binding z-score (relative to random genomic background probes); higher = stronger binding; sequences stand for … in GC…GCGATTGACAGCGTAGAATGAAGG
metric: PBM binding z-score
Give only the figure.

{"columns": ["orderedResidues", "PBM binding z-score"],
 "data": [
  ["ACTAGTCGGTCAGCTGAGGTCACACACAATTCGG", 2.2],
  ["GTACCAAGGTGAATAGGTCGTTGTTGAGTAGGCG", 0.154],
  ["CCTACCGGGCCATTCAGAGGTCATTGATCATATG", 0.404],
  ["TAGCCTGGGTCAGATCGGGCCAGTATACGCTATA", -0.739],
  ["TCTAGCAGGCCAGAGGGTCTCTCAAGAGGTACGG", -0.894],
  ["AATACAGGTTCATCGTAGGCCAGAGTACGCACAG", 0.533]
]}

Ask: // returns reported PBM binding z-score for input TTACCAAGGTGAGATGAGGTCGTTGATCCAACTC
Reply: 0.0224

Ask: Fill in: PBM binding z-score of CCTATTAGTTGTCCATAAGGGCAACCGAAGCTCG is ___
Reply: 2.11

Ask: Reported PBM binding z-score for GCAGATAGGTGAAACGCAGGTAACTCAGGGTGGC : what is it?
Reply: -0.582

Ask: Form field: reported PBM binding z-score of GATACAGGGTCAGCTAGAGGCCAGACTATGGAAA
Reply: 0.752

Ask: PBM binding z-score for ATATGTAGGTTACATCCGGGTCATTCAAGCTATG ?
Reply: 0.831

Ask: // query PBM binding z-score value for entry CCTACTGGGCCACAGGTCATTGATTCCAATGCTC
Reply: -0.37

Ask: PBM binding z-score for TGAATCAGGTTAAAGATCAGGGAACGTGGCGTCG ?
Reply: 0.262

Ask: Find the recorded PBM binding z-score belonging to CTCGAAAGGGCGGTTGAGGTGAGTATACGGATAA and report it.
Reply: -0.275

Ask: Need PBM binding z-score, item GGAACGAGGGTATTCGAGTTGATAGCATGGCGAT
Reply: -0.18

Ask: // query PBM binding z-score value for entry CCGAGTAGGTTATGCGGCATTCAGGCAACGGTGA
Reply: 0.296

Ask: Form field: reported PBM binding z-score of TCTTGTAGATCCACAGGAGGTTAAGAAAGATCGA
Reply: 0.176

Ask: Consider the sequence ATCGAAAGGTCGAGGTGAGAATAGAGAAAGGGAA and give its measured PBM binding z-score.
Reply: 0.51

Ask: # lookup: PBM binding z-score of GCAGACAGGTGAAACGCAGGTAACTGAGGGTGGC
Reply: -0.289

Ask: Please report the recorded PBM binding z-score for GCTAGTAGATCAAGGTTAAGAAAGACTAAGCTAA .
Reply: 0.169

Ask: Given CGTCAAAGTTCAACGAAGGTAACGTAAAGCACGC , state its recorded PBM binding z-score.
Reply: 0.936

Ask: Item AGAATGAGGTTATTACGATCAGGGAATTGCGGTC has what recorded PBM binding z-score?
Reply: 1.21

Ask: Give its PBM binding z-score value. Item: CGTCCAAGGTCAGAGAGGCCAGTGAATGCCGAGT
Reply: -0.0378

Ask: Any idea what its PBM binding z-score is? The sequence is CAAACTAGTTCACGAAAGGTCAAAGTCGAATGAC
Reply: 3.03

Ask: // returns reported PBM binding z-score for input CATACAGGGTCAGCTAGGTCAGAGTAGGGACGGC
Reply: 1.02

Ask: Give its PBM binding z-score value. Item: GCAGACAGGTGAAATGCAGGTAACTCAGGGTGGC
Reply: -0.661

====

# Test system: PPARg:RXRa 30nM:10nM, anti-RXR (NR concentration 30 nM, RXRa partner concentration 10 nM)
# methodSummary: PBM binding z-score (relative to random genomic background probes); higher = stronger binding; sequences stand for … in GC…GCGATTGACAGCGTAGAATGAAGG
PBM binding z-score vs 0.3: at or above is fulfilled, below is not fulfilled.

Illustrative cases are given below, each with its answer.
{"columns": ["orderedResidues", "assayTarget", "group"],
 "data": [
  ["GCTGCTAGGTCAACTGATGGACAGCTAAAGCTCG", "PPARg:RXRa 30nM:10nM, anti-RXR (NR concentration 30 nM, RXRa partner concentration 10 nM)", "not fulfilled"],
  ["TGAATGAGGTTAATGATCAGGGAACGTGGCGTCG", "PPARg:RXRa 30nM:10nM, anti-RXR (NR concentration 30 nM, RXRa partner concentration 10 nM)", "fulfilled"]
]}

Ask: Threshold query (PBM binding z-score >= 0.3) on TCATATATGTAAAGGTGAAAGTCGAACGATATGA
Reply: fulfilled

Ask: Identify whether the reported PBM binding z-score of the following sequence is 0.3 or greater: ATCTCTAGGTAAGACTCAGTTCAATGAAGAACGC
Reply: fulfilled

====

# Test system: RARa:RXR (NR concentration 270 nM, RXRa partner concentration 90 nM)
# methodSummary: PBM binding z-score (relative to random genomic background probes); higher = stronger binding; sequences stand for … in GC…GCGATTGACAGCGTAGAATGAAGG
Is PBM binding z-score at least 0.9? Then Criterion met. If not, Criterion not met.

Consider the worked cases shown below.
{"columns": ["orderedResidues", "group"],
 "data": [
  ["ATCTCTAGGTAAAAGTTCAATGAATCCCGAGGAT", "Criterion met"],
  ["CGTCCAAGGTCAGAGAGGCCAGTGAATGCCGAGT", "Criterion met"],
  ["TCTATTAGTTGCTTAGGGCAACCGAAACAGCGGA", "Criterion not met"],
  ["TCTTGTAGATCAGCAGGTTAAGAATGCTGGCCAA", "Criterion not met"],
  ["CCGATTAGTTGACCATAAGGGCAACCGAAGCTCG", "Criterion not met"]
]}

As a next step, examine the sequence that follows.
Ask: # check: PBM binding z-score of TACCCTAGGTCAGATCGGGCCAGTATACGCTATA is greater than or equal to 0.9
Reply: Criterion met
